Source of measurements: patent US20070117743A1

Listing of entries alongside the reported CC50.
- System: HeLa-APL
- METHOD_NOTES: SRB colorimetric assay of cell growth and viability, HeLa-APL
- Assay type: cell-based, human
- CONDITION_DETAILS: HELA-APL; 48 hours exposure; read-out: LC50 HELA-APL
Where a SMILES comes first, the peptide text is derived from it. Bridges are numbered along the chain shown (N, C = ends). [ ]: non-standard residue; d: D form. The star is where a group is joined. d(aIle) = CC[C@H](C)[C@@H](N)C(=O)O; d(aThr) = C[C@@H](O)[C@@H](N)C(=O)O; Hexanoyl(5-Me) = CC(C)CCCC(=O)*; Orn = NCCC[C@H](N)C(=O)O; Dhb = C/C=C(\N)C(=O)O

[
  {
    "COMPOUND": "C/C=C1\\NC(=O)[C@H](Cc2ccccc2Cl)NC(=O)[C@@H](C(C)C)NC(=O)[C@@H]([C@@H](C)CC)NC(=O)[C@H](NC(=O)[C@H](NC(=O)[C@H](CCCN)NC(=O)[C@H]2CCCN2C(=O)[C@H](NC(=O)[C@@H](NC(=O)[C@@H](NC(=O)[C@H](NC(=O)CCCC(C)C)C(C)C)[C@@H](C)O)C(C)C)C(C)C)[C@@H](C)CC)[C@@H](C)OC(=O)[C@H](C(C)C)NC1=O [Compound 81, [Phe(2-Cl)^3]-KF]",
    "UNIT_STRING": "µM",
    "CC50": 1.84
  },
  {
    "COMPOUND": "C/C=C1\\NC(=O)[C@H](Cc2ccccc2)NC(=O)[C@@H](C(C)C)NC(=O)[C@@H]([C@@H](C)CC)NC(=O)[C@H](NC(=O)[C@H](NC(=O)[C@H](CCCN)NC(=O)[C@H]2CCCN2C(=O)[C@H](NC(=O)[C@@H](NC(=O)[C@H](CCC(N)=O)NC(=O)[C@H](NC(=O)CCCC(C)C)C(C)C)C(C)C)C(C)C)[C@@H](C)CC)[C@@H](C)OC(=O)[C@H](C(C)C)NC1=O [Compound 119, [Gln^12]-KF] ({Hexanoyl(5-Me)}-[dV]QV[dV][dP][Orn][d(aIle)][d(aThr)][d(aIle)][dV]F[Dhb]V; ester 8-C)",
    "UNIT_STRING": "µM",
    "CC50": 1.99
  }
]

====

The following compounds are listed with their measured CC50 values.
- Test system: LNCaP
- METHOD_NOTES: SRB colorimetric assay of cell growth and viability, LNCaP
- Type: cell-based, human
- CONDITION_DETAILS: 48 hours exposure; read-out: LC50 LN-caP
- Experimental: The finality of this assay is to interrupt the growth of a “in vitro” tumor cell culture by means a continued exhibition of the cells to the sample to be testing. […] Cells are seeded in 96 well microtiter plates, at 5×10^3 cells per well in aliquots of 195 μL medium, and they are allowed to attach to the plate surface by growing in drug free medium for 18 hours. […] Optical densities are read on a automated spectrophotometric plate reader at a single wavelength of 490 nm. […]
ENDPOINT_LABEL: CC50 (µM)

[
  {
    "COMPOUND": "C/C=C1\\NC(=O)[C@H](Cc2ccccc2)NC(=O)[C@@H](C(C)C)NC(=O)[C@@H]([C@@H](C)CC)NC(=O)[C@H](NC(=O)[C@H](NC(=O)[C@H](CCCN)NC(=O)[C@H]2CCCN2C(=O)[C@H](NC(=O)[C@@H](NC(=O)[C@@H](NC(=O)[C@H](NC(=O)Cc2ccc(C(F)(F)F)cc2)C(C)C)[C@@H](C)O)C(C)C)C(C)C)[C@@H](C)CC)[C@@H](C)OC(=O)[C@H](C(C)C)NC1=O [Compound 25, [p-CF3PhAc^14]-KF]",
    "MEASUREMENT_TARGET": "LNCaP",
    "ENDPOINT_LABEL": "CC50",
    "CENSORING_QUALIFIER": "=",
    "MEASURED_RESULT": 3.66
  },
  {
    "COMPOUND": "C/C=C1\\NC(=O)[C@H](Cc2ccccc2)NC(=O)[C@@H](C(C)C)NC(=O)[C@@H]([C@@H](C)CC)NC(=O)[C@H](NC(=O)[C@H](NC(=O)[C@H](CCCN)NC(=O)[C@H]2CCCN2C(=O)[C@H](NC(=O)[C@H](NC(=O)[C@@H](NC(=O)[C@H](NC(=O)CCCC(C)C)C(C)C)[C@@H](C)O)C(C)C)C(C)C)[C@@H](C)CC)[C@@H](C)OC(=O)[C@H](C(C)C)NC1=O [Compound 46, [D-Val^11]-KF]",
    "MEASUREMENT_TARGET": "LNCaP",
    "ENDPOINT_LABEL": "CC50",
    "CENSORING_QUALIFIER": "≥",
    "MEASURED_RESULT": 6.77
  }
]

====

- System: IGROV-1
- METHOD_NOTES: SRB colorimetric assay of cell growth and viability, IGROV-1
- Type: cell-based, human
- CONDITION_DETAILS: IGROV; 48 hours exposure
Where a SMILES comes first, the peptide text is derived from it. Bridges are numbered along the chain shown (N, C = ends). [ ]: non-standard residue; d: D form. The star is where a group is joined. d(aIle) = CC[C@H](C)[C@@H](N)C(=O)O; d(aThr) = C[C@@H](O)[C@@H](N)C(=O)O; Hexanoyl(5-Me) = CC(C)CCCC(=O)*; Orn = NCCC[C@H](N)C(=O)O; Dhb = C/C=C(\N)C(=O)O
So basically, if LC50 (concentration causing 50% net cell killing) comes in under 2 µM it's yes, and if it's 2 µM or more it's no.

[
  {
    "COMPOUND": "C/C=C1\\NC(=O)[C@H](Cc2ccc(Cl)cc2)NC(=O)[C@@H](C(C)C)NC(=O)[C@@H]([C@@H](C)CC)NC(=O)[C@H](NC(=O)[C@H](NC(=O)[C@H](CCCN)NC(=O)[C@H]2CCCN2C(=O)[C@H](NC(=O)[C@@H](NC(=O)[C@@H](NC(=O)[C@H](NC(=O)CCCC(C)C)C(C)C)[C@@H](C)O)C(C)C)C(C)C)[C@@H](C)CC)[C@@H](C)OC(=O)[C@H](C(C)C)NC1=O [Compound 83, [Phe(4-Cl)^3]-KF]",
    "MEASUREMENT_TARGET": "IGROV-1",
    "ASSIGNED_CLASS": "yes"
  },
  {
    "COMPOUND": "C/C=C1\\NC(=O)[C@H](Cc2ccccc2)NC(=O)[C@@H](C(C)C)NC(=O)[C@@H]([C@@H](C)CC)NC(=O)[C@H](NC(=O)[C@H](NC(=O)[C@H](CCCN)NC(=O)[C@H]2CCCN2C(=O)[C@H](NC(=O)[C@@H](NC(=O)[C@H](C)NC(=O)[C@H](NC(=O)CCCC(C)C)C(C)C)C(C)C)C(C)C)[C@@H](C)CC)[C@@H](C)OC(=O)[C@H](C(C)C)NC1=O [Compound 112, [Ala^12]-KF] ({Hexanoyl(5-Me)}-[dV]AV[dV][dP][Orn][d(aIle)][d(aThr)][d(aIle)][dV]F[Dhb]V; ester 8-C)",
    "MEASUREMENT_TARGET": "IGROV-1",
    "ASSIGNED_CLASS": "no"
  },
  {
    "COMPOUND": "C/C=C1\\NC(=O)[C@H](Cc2ccccc2)NC(=O)[C@@H](C(C)C)NC(=O)[C@@H]([C@@H](C)CC)NC(=O)[C@H](NC(=O)[C@H](NC(=O)[C@H](CCCN)NC(=O)[C@H]2CCCN2C(=O)[C@H](NC(=O)[C@@H](NC(=O)[C@H](CCC(=O)O)NC(=O)[C@H](NC(=O)CCCC(C)C)C(C)C)C(C)C)C(C)C)[C@@H](C)CC)[C@@H](C)OC(=O)[C@H](C(C)C)NC1=O [Compound 115, [Glu^12]-KF] ({Hexanoyl(5-Me)}-[dV]EV[dV][dP][Orn][d(aIle)][d(aThr)][d(aIle)][dV]F[Dhb]V; ester 8-C)",
    "MEASUREMENT_TARGET": "IGROV-1",
    "ASSIGNED_CLASS": "no"
  },
  {
    "COMPOUND": "C/C=C1\\NC(=O)[C@H](Cc2ccccc2)NC(=O)[C@@H](C(C)C)NC(=O)[C@@H]([C@@H](C)CC)NC(=O)[C@H](NC(=O)[C@H](NC(=O)[C@H](CCCN)NC(=O)[C@H]2CCCN2C(=O)[C@H](NC(=O)[C@@H](NC(=O)[C@H](CC(C)C)NC(=O)[C@H](NC(=O)CCCC(C)C)C(C)C)C(C)C)C(C)C)[C@@H](C)CC)[C@@H](C)OC(=O)[C@H](C(C)C)NC1=O [Compound 113, [Leu^12]-KF] ({Hexanoyl(5-Me)}-[dV]LV[dV][dP][Orn][d(aIle)][d(aThr)][d(aIle)][dV]F[Dhb]V; ester 8-C)",
    "MEASUREMENT_TARGET": "IGROV-1",
    "ASSIGNED_CLASS": "no"
  },
  {
    "COMPOUND": "C/C=C1\\NC(=O)[C@H](Cc2ccccc2)NC(=O)[C@@H](C(C)C)NC(=O)[C@@H]([C@@H](C)CC)NC(=O)[C@H](NC(=O)[C@H](NC(=O)[C@H](CCCN)NC(=O)[C@H]2CCCN2C(=O)[C@H](NC(=O)[C@@H](NC(=O)CNC(=O)[C@H](NC(=O)CCCC(C)C)C(C)C)C(C)C)C(C)C)[C@@H](C)CC)[C@@H](C)OC(=O)[C@H](C(C)C)NC1=O [Compound 111, [Gly^12]-KF] ({Hexanoyl(5-Me)}-[dV]GV[dV][dP][Orn][d(aIle)][d(aThr)][d(aIle)][dV]F[Dhb]V; ester 8-C)",
    "MEASUREMENT_TARGET": "IGROV-1",
    "ASSIGNED_CLASS": "yes"
  },
  {
    "COMPOUND": "C/C=C1\\NC(=O)[C@H](Cc2ccccc2)NC(=O)[C@@H](C(C)C)NC(=O)[C@@H]([C@@H](C)CC)NC(=O)[C@H](NC(=O)[C@H](NC(=O)[C@H](CCCN)NC(=O)[C@H]2CCCN2C(=O)[C@H](NC(=O)[C@@H](NC(=O)[C@H](CCCN)NC(=O)[C@H](NC(=O)CCCC(C)C)C(C)C)C(C)C)C(C)C)[C@@H](C)CC)[C@@H](C)OC(=O)[C@H](C(C)C)NC1=O [Compound 116, [Orn^12]-KF] ({Hexanoyl(5-Me)}-[dV][Orn]V[dV][dP][Orn][d(aIle)][d(aThr)][d(aIle)][dV]F[Dhb]V; ester 8-C)",
    "MEASUREMENT_TARGET": "IGROV-1",
    "ASSIGNED_CLASS": "no"
  },
  {
    "COMPOUND": "C/C=C1\\NC(=O)[C@H](Cc2ccccc2)NC(=O)[C@@H](C(C)C)NC(=O)[C@@H]([C@@H](C)CC)NC(=O)[C@H](NC(=O)[C@H](NC(=O)[C@H](CCCN)NC(=O)[C@H]2CCCN2C(=O)[C@H](NC(=O)[C@@H](NC(=O)[C@H](CCC(N)=O)NC(=O)[C@H](NC(=O)CCCC(C)C)C(C)C)C(C)C)C(C)C)[C@@H](C)CC)[C@@H](C)OC(=O)[C@H](C(C)C)NC1=O [Compound 119, [Gln^12]-KF] ({Hexanoyl(5-Me)}-[dV]QV[dV][dP][Orn][d(aIle)][d(aThr)][d(aIle)][dV]F[Dhb]V; ester 8-C)",
    "MEASUREMENT_TARGET": "IGROV-1",
    "ASSIGNED_CLASS": "yes"
  },
  {
    "COMPOUND": "C/C=C1\\NC(=O)[C@H](Cc2ccc(F)c(F)c2)NC(=O)[C@@H](C(C)C)NC(=O)[C@@H]([C@@H](C)CC)NC(=O)[C@H](NC(=O)[C@H](NC(=O)[C@H](CCCN)NC(=O)[C@H]2CCCN2C(=O)[C@H](NC(=O)[C@@H](NC(=O)[C@@H](NC(=O)[C@H](NC(=O)CCCC(C)C)C(C)C)[C@@H](C)O)C(C)C)C(C)C)[C@@H](C)CC)[C@@H](C)OC(=O)[C@H](C(C)C)NC1=O [Compound 84, [Phe(3,4-F2)^3]-KF]",
    "MEASUREMENT_TARGET": "IGROV-1",
    "ASSIGNED_CLASS": "yes"
  }
]
